Assay: IUF_NPC1a_proliferation_area_72hr: Leibniz Research Institute for Environmental Medicine (IUF) 72-hour Neural Progenitor Cell Proliferation Area Assay (NPC1a) (AID 2284208)
Protocol: IUF_NPC1 is a cell-based, multiplexed assay that uses hNPC, a human primary neural progenitor cells, with measurements taken at 72 hours after chemical dosing in a 96-well plate. […] Cell proliferation is assessed as an increase in sphere area using automated phase contrast imaging and as incorporation of Bromodeoxyuridine (BrdU) during DNA synthesis using a luminescence-based cell proliferation ELISA. […]
Activity calls are given as the source filed them. Rule for the calls: active = hit-call score of the fitted dose curve at least 0.9, where 1 is the maximum; inactive = score below 0.9.
# output must be one of y = active, n = inactive

QUERY: What did the test return for "CCOP(=O)(OCC)SCSC(C)(C)C" ?
RESULT: n

QUERY: What did the test return for "CC(=O)[O-].CC(=O)[O-].O.O.O.[Pb+2]" ?
RESULT: n

QUERY: What did the test return for "CC(=O)[O-].[Tl+]" ?
RESULT: y

QUERY: What did the test return for "CCOP(=O)(OCC)SCSCC" ?
RESULT: n

QUERY: What did the test return for "CC1(C)[C@@H](C=C(Cl)Cl)[C@@H]1C(=O)O[C@@H](C#N)c1ccc(F)c(Oc2ccccc2)c1" ?
RESULT: n

QUERY: What did the test return for "C[n+]1ccc(-c2cc[n+](C)cc2)cc1" ?
RESULT: n

QUERY: What did the test return for CNC(=N[N+](=O)[O-])NCC1CCOC1 (stereo not given) ?
RESULT: n

QUERY: What did the test return for CC1(C)C(C=C(Cl)c2ccc(Cl)cc2)C1C(=O)OC(C#N)c1ccc(F)c(Oc2ccccc2)c1 (stereo not given) ?
RESULT: n

QUERY: What did the test return for CCOP(=O)(Oc1cnc(C(C)(C)C)nc1)OC(C)C (stereo not given) ?
RESULT: n

QUERY: What did the test return for "COP(=O)(OC)SCN1C(=O)c2ccccc2C1=O" ?
RESULT: n
